# Tested System: Aurora kinase A (Homo sapiens)
# Sequence (whole entry): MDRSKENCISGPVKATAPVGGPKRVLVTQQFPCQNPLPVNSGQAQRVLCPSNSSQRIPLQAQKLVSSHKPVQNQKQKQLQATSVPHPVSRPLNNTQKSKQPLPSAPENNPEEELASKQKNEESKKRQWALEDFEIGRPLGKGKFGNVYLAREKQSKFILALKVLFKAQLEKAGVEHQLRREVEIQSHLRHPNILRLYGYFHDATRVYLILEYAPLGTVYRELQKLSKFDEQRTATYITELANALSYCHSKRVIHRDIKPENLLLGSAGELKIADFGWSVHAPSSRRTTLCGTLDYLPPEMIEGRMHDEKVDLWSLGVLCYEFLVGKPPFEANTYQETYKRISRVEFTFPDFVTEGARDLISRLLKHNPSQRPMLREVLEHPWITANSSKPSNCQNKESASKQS
# Experimental Conditions: at 1 µM
Please use 1 (yes) whenever residual activity is not below 80%, and 0 (no) whenever it is.

Some entries whose results are on file:
INSERT INTO results (molecule, tested_system, assigned_category) VALUES
  ('O=C1Nc2ccc(Cl)cc2/C1=C/c1cc(Cl)c(O)c(Cl)c1', 'Aurora kinase A (Homo sapiens)', '0 (no)'),
  ('COc1cc2nccc(Oc3ccc(NC(=S)NC(=O)c4ccccc4C)cc3)c2cc1OC', 'Aurora kinase A (Homo sapiens)', '0 (no)'),
  ('CC(C)[C@H](CO)Nc1nc(Nc2cc(N)cc(Cl)c2)c2ncn(C(C)C)c2n1', 'Aurora kinase A (Homo sapiens)', '0 (no)'),
  ('N#C/C(=C1/Nc2ccccc2S1)c1ccnc(NCCc2cccnc2)n1', 'Aurora kinase A (Homo sapiens)', '0 (no)'),
  ('O=C(NC(NC(=S)Nc1ccc(F)c([N+](=O)[O-])c1)C(Cl)(Cl)Cl)C(c1ccccc1)c1ccccc1 (centres undefined)', 'Aurora kinase A (Homo sapiens)', '1 (yes)');

Query: Does `O=c1cc(N2CCOCC2)oc2c1ccc1ccccc12` have a reported residual activity of at least 80%?
Result: 1 (yes)

Query: Does `O=c1cc(N2CCNCC2)oc2c(-c3ccccc3)cccc12` have a reported residual activity of at least 80%?
Result: 1 (yes)

Query: Does `Nc1ncnc2c1c(-c1ccc(Oc3ccccc3)cc1)cn2C1CCCC1` have a reported residual activity of at least 80%?
Result: 0 (no)

Query: Does `O=C1NC(=O)c2c1c1c3ccccc3[nH]c1n1cncc21` have a reported residual activity of at least 80%?
Result: 0 (no)

---

# Tested System: Protein kinase C beta type (Homo sapiens)
# Experimental Conditions: at 10 µM
For each of the molecules below, state its residual activity.
Numbers only, in %.

Example cases with answers are listed next.
INSERT INTO results (smiles_entry, tested_system, parameter, experimental_value) VALUES
  ('Nc1nccc(-c2c(-c3ccc(F)cc3)ncn2C2CCNCC2)n1', 'Protein kinase C beta type (Homo sapiens)', 'residual activity', 69),
  ('Nc1ncnc2c1c(-c1ccc(Oc3ccccc3)cc1)cn2C1CCCC1', 'Protein kinase C beta type (Homo sapiens)', 'residual activity', 103),
  ('O=c1cc(N2CCOCC2)oc2c1ccc1ccccc12', 'Protein kinase C beta type (Homo sapiens)', 'residual activity', 95),
  ('O=S(=O)(c1cccc2cnccc12)N1CCCNCC1', 'Protein kinase C beta type (Homo sapiens)', 'residual activity', 46),
  ('Cn1sc(=O)n(Cc2ccccc2)c1=O', 'Protein kinase C beta type (Homo sapiens)', 'residual activity', 54),
  ('CCCC(=O)Oc1ccc2[nH]c(C(=O)c3cc4ccccc4[nH]3)cc2c1', 'Protein kinase C beta type (Homo sapiens)', 'residual activity', 93),
  ('N#C/C(=C1/Nc2ccccc2S1)c1ccnc(NCCc2cccnc2)n1', 'Protein kinase C beta type (Homo sapiens)', 'residual activity', 121),
  ('O=C(CCCc1ccc(-c2ccccc2F)cc1)Nc1ccc(O)cc1', 'Protein kinase C beta type (Homo sapiens)', 'residual activity', 108);

I'm hoping you can list residual activity for every molecule here, please.
1. COc1cc2nccc(Oc3ccc(NC(=O)Nc4cc(C)on4)c(Cl)c3)c2cc1OC
2. NCCNc1ncc(C(N)=O)c(Nc2cccc(C(F)(F)F)c2)n1
3. COc1cc2c(cc1OC)-c1n[nH]c(Nc3cccc(F)c3)c1C2
4. CCN(CC)CCNC(=O)c1c(C)[nH]c(/C=C2\C(=O)Nc3ccc(Cl)cc32)c1C
5. O=C1NC(=O)C(c2c[nH]c3ccccc23)=C1c1c[nH]c2ccccc12
6. NC(=O)Nc1sc(-c2ccc(F)cc2)cc1C(N)=O
7. Fc1ccc(-c2nc3n(c2-c2ccncc2)CCS3)cc1
8. c1ccc(-c2cnc(Nc3ccc(OCCN4CCCC4)cc3)s2)cc1

Result:
97
60
108
117
23
77
82
116

---

# Tested System: Focal adhesion kinase 1 (Homo sapiens) (UniProt Q05397)
# Sequence (Q05397 2-1052 limits assumed): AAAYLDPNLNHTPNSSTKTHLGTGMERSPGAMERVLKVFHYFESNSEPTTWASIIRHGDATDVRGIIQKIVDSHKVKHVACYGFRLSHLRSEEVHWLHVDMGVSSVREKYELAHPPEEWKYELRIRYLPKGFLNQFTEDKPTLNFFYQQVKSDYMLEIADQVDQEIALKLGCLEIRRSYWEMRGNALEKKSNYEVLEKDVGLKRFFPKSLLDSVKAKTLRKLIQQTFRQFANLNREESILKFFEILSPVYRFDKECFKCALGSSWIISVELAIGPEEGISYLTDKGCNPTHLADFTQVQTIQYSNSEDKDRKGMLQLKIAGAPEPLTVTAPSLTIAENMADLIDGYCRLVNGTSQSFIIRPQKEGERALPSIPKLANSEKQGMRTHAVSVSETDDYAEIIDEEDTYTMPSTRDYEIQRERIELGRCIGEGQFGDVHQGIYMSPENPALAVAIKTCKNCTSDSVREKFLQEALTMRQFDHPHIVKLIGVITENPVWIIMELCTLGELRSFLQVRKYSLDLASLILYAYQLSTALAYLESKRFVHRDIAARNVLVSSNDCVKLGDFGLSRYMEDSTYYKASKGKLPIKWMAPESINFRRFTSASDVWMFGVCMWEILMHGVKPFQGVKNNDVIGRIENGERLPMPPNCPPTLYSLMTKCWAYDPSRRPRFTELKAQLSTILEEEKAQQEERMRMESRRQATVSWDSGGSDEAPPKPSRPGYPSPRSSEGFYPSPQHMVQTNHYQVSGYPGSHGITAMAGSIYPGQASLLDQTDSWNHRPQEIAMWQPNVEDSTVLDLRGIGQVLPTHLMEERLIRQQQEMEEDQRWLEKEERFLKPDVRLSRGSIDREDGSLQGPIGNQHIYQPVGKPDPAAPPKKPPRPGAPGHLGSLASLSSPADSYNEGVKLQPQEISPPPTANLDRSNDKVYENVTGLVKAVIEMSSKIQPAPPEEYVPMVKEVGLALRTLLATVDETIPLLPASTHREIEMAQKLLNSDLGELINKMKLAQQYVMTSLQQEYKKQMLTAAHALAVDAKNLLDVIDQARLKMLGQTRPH
# Experimental Conditions: at 1 µM
Parameter: residual activity
Remember to quote the unit after the number.

INSERT INTO results (smiles_entry, experimental_value) VALUES
  ('COc1cc2nccc(Oc3ccc(NC(=O)Nc4cc(C)on4)c(Cl)c3)c2cc1OC', '96%'),
  ('N#C/C(=C1/Nc2ccccc2S1)c1ccnc(NCCc2cccnc2)n1', '100%'),
  ('COc1ccc(Cl)cc1NC(=O)Nc1cc(C)nc2ccccc12', '127%'),
  ('O=C1NC(=O)C(c2cn(CCCn3ccnc3)c3ccccc23)=C1Nc1ccccc1', '119%'),
  ('N#C/C(=C\c1ccc(O)c(O)c1)C(=O)NCc1ccccc1', '127%');

Here is another compound to look at.
Query: Tell me measured residual activity for `NCCNc1ncc(C(N)=O)c(Nc2cccc(C(F)(F)F)c2)n1` please.
Result: 64%

---

# Tested System: Ephrin type-A receptor 7 (Homo sapiens)
# Experimental Conditions: at 10 µM
Cut-off 80% on residual activity: below means y, at or above means n.

Query: Please check: residual activity for `N#C/C(=C\c1ccc(O)c(O)c1)C(=O)NCc1ccccc1` , strictly under 80% or not?
Result: n

Query: Please check: residual activity for `CCCC(=O)Oc1ccc2[nH]c(C(=O)c3cc4ccccc4[nH]3)cc2c1` , strictly under 80% or not?
Result: n

Query: Please check: residual activity for `N#C/C(=C1/Nc2ccccc2S1)c1ccnc(NCCc2cccnc2)n1` , strictly under 80% or not?
Result: y

Query: Please check: residual activity for `CC(C)(C)n1nc(Cc2cccc3ccccc23)c2c(N)ncnc21` , strictly under 80% or not?
Result: y

Query: Please check: residual activity for `COc1cc2ncnc(Nc3cccc(Cl)c3)c2cc1OC` , strictly under 80% or not?
Result: y

Query: Please check: residual activity for `O=C(CCCc1ccc(-c2ccccc2F)cc1)Nc1ccc(O)cc1` , strictly under 80% or not?
Result: n

Query: Please check: residual activity for `NCCNc1ncc(C(N)=O)c(Nc2cccc(C(F)(F)F)c2)n1` , strictly under 80% or not?
Result: y

Query: Please check: residual activity for `Nc1ncnc2c1c(-c1ccc(Oc3ccccc3)cc1)cn2C1CCCC1` , strictly under 80% or not?
Result: y

Query: Please check: residual activity for `Cc1cc(C)c(/C=C2\C(=O)Nc3ccccc32)[nH]1` , strictly under 80% or not?
Result: y

Query: Please check: residual activity for CSc1nc(-c2ccc(F)cc2)c(-c2ccnc(NC(C)c3ccccc3)c2)[nH]1 (configuration not stated) , strictly under 80% or not?
Result: n

Query: Please check: residual activity for `COc1cc2nccc(Oc3ccc(NC(=S)NC(=O)c4ccccc4C)cc3)c2cc1OC` , strictly under 80% or not?
Result: y

Query: Please check: residual activity for `CCCCc1c(-c2ccc(O)cc2)[nH]c2nccnc12` , strictly under 80% or not?
Result: y

Query: Please check: residual activity for `O=C(c1ccccc1)c1ccc(N2CCOCC2)cc1O` , strictly under 80% or not?
Result: n

Query: Please check: residual activity for `CCN(CC)CCNC(=O)c1c(C)[nH]c(/C=C2\C(=O)Nc3ccc(Cl)cc32)c1C` , strictly under 80% or not?
Result: y

Query: Please check: residual activity for `O=C1NC(=O)C(c2c[nH]c3ccccc23)=C1c1c[nH]c2ccccc12` , strictly under 80% or not?
Result: y

Query: Please check: residual activity for `c1ccc(-c2cnc(Nc3ccc(OCCN4CCCC4)cc3)s2)cc1` , strictly under 80% or not?
Result: y

---

# Tested System: Mitogen-activated protein kinase kinase kinase 7 (Homo sapiens) (UniProt O43318)
# Sequence (O43318 whole entry): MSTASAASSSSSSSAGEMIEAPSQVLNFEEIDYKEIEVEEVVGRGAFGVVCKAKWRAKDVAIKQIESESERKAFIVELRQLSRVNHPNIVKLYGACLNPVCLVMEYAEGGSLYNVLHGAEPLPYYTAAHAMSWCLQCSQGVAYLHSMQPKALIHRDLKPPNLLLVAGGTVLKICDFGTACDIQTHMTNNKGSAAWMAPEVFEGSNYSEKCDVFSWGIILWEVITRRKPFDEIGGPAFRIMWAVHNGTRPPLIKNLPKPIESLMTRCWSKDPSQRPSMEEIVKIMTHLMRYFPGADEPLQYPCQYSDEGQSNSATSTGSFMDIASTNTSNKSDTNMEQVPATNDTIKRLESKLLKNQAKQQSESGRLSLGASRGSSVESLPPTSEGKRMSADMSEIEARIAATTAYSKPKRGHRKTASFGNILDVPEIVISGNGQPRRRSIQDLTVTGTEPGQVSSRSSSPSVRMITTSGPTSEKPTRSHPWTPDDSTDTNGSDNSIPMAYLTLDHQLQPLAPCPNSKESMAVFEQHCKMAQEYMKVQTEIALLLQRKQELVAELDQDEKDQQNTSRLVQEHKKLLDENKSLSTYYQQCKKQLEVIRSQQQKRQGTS
# Experimental Conditions: at 10 µM
For each of the compounds below, state its residual activity.
Give bare numbers, in %.

Example cases with answers are listed next.
INSERT INTO assay_data (smiles_entry, parameter, unit_annotation, experimental_value) VALUES
  ('COc1ccc(CNC(=O)Nc2ncc([N+](=O)[O-])s2)cc1', 'residual activity', '%', 79),
  ('NC(=O)c1cccc(-c2cc(Nc3ccc(OC(F)(F)F)cc3)ncn2)c1', 'residual activity', '%', 95),
  ('COc1ccc(Cl)cc1NC(=O)Nc1cc(C)nc2ccccc12', 'residual activity', '%', 95),
  ('CC(C)[C@H](CO)Nc1nc(Nc2cc(N)cc(Cl)c2)c2ncn(C(C)C)c2n1', 'residual activity', '%', 30);

I'm hoping you can list residual activity for every compound here, please.
1. c1ccc(-c2cnc(Nc3ccc(OCCN4CCCC4)cc3)s2)cc1
2. Nc1n[nH]c2nc3ccccc3nc12
3. CCCC(=O)Oc1ccc2[nH]c(C(=O)c3cc4ccccc4[nH]3)cc2c1

Result:
[74, 74, 87]

I'm hoping you can list residual activity for every compound here, please.
1. CC(C)(C)n1nc(Cc2cccc3ccccc23)c2c(N)ncnc21
2. N#Cc1c(NC(=O)c2cccc3ccccc23)sc2c1CCCC2
3. Nc1ncnc2c1cnn2-c1ccccc1
4. O=C1Nc2ccc(Cl)cc2/C1=C/c1cc(Cl)c(O)c(Cl)c1

Result:
78
93
88
75
